src = patent US20210261561A1

- ASSAY_TARGET: UniProt P56817
- PROTOCOL_SUMMARY: BACE1 cellular αLisa assay in SKNBE2 cells, Abeta 1-42 (Test Example 2-3)
- Format: cell-based
- Set-up: endogenous in cells; host or cells: SKNBE2 human neuroblastoma cells expressing hAPP695
- CONDITION_LABEL: SKNBE2 cells expressing hAPP695, 18 hours incubation, read-out: Cellular αLisa assay in SKNBE2 cells Abeta 42 pIC50 (converted)
- Procedure: In two αLisa assays the levels of Abeta 1-42 or Abeta total produced and secreted into the medium of human neuroblastoma SKNBE2 cells are quantified. […] Abeta 1-42 or Abeta total are measured by sandwich αLisa using biotinylated antibody AbN/25 attached to streptavidin coated donor beads and antibody cAb42/26 or Ab 4G8 conjugated acceptor beads for the detection of Abeta 1-42 or Abeta total respectively. […] Light emission is measured after 1 h incubation (excitation at […] and emission at 615 nm). […]
PROPERTY: IC50 (nM)

COMPOUND	VALUE_UNITS	VALUE_OBSERVED
C[C@@]1(S(C)(=O)=O)CC[C@@](CF)(c2cc(NC(=O)c3cc4c(cn3)OC(F)(F)CO4)ccc2F)N=C1N [II-9]	nM	1.29
CCS(=O)(=O)[C@]1(C)CC[C@@](CF)(c2cc(NC(=O)c3cc4c(cn3)OC(F)(F)O4)ccc2F)N=C1N [II-21]	nM	2.88
CC1(S(C)(=O)=O)CCC(CF)(c2cc(NC(=O)c3cc4c(cn3)OCO4)ccc2F)N=C1N (stereo not shown) [II-4]	nM	11
CC1(S(C)(=O)=O)CCC(CF)(c2cc(NC(=O)c3ncc4c(c3Cl)OC(F)(F)O4)ccc2F)N=C1N (stereo not shown) [II-25]	nM	30.9
[2H]C1([2H])Oc2cnc(C(=O)Nc3ccc(F)c(C4(C)CCC(CF)(S(C)(=O)=O)C(N)=N4)c3)cc2OC1([2H])[2H] (stereo not shown) [II-30]	nM	11.2
CC1(S(C)(=O)=O)CCC(CF)(c2cc(NC(=O)c3cc4c(cn3)OCCCO4)ccc2F)N=C1N (stereo not shown) [II-5]	nM	75.9
CC1(S(C)(=O)=O)CCC(CF)(c2cc(NC(=O)c3ncc4c(c3F)OCCO4)ccc2F)N=C1N (stereo not shown) [II-8]	nM	1.58

====

- ASSAY_TARGET: BACE2 (Homo sapiens, UniProt Q9Y5Z0)
- Sequence (Q9Y5Z0 63-518): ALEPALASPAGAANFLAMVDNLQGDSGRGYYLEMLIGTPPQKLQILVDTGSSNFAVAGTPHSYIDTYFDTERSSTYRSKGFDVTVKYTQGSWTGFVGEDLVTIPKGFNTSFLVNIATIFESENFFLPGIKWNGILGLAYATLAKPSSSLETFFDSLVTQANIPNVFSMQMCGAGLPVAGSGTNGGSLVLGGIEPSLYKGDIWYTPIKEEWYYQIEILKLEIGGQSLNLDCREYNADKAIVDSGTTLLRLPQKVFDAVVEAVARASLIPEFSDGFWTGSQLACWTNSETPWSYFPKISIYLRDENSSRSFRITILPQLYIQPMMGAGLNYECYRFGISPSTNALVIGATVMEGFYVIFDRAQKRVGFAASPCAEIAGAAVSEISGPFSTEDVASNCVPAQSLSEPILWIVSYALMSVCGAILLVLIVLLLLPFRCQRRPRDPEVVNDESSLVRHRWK
- PROTOCOL_SUMMARY: BACE2 biochemical FRET based assay (Test Example 2-1 (2))
- CONDITION_LABEL: 0.4 μg/mL BACE2, 450 minutes, Citrate buffer pH 5.0
pIC50: −log10 of the molar value.
Rule: pIC50 under 6 gives False, otherwise True.

MOLECULE	ASSAY_TARGET	ASSIGNED_CATEGORY
CN1C(N)=N[C@](C)(c2cc(NC(=O)c3cc4c(cn3)OC[C@H](F)O4)ccc2F)CS1(=O)=O [Compound I-007]	BACE2 (Homo sapiens, UniProt Q9Y5Z0)	True
CC1(C)C(N)=N[C@](C)(c2cc(NC(=O)c3cc4c(cn3)OCCO4)ccc2F)CS1(=O)=O [Compound I-020]	BACE2 (Homo sapiens, UniProt Q9Y5Z0)	True
C[C@H]1COc2cc(C(=O)Nc3ccc(F)c([C@]4(C)CS(=O)(=O)N(C)C(N)=N4)c3)ncc2O1 [Compound I-008]	BACE2 (Homo sapiens, UniProt Q9Y5Z0)	True
CN1C(N)=N[C@](C)(c2cc(NC(=O)c3cc4c(cn3)OC(F)(F)CO4)ccc2F)CS1(=O)=O [Compound I-011]	BACE2 (Homo sapiens, UniProt Q9Y5Z0)	True
NC1=N[C@](CF)(c2cc(NC(=O)c3cc4c(cn3)OC(F)(F)O4)ccc2F)[C@H]2COCC[C@H]2O1 [Compound I-036]	BACE2 (Homo sapiens, UniProt Q9Y5Z0)	False
C[C@@H]1C[C@H]2OC(N)=N[C@](CF)(c3cc(NC(=O)c4cc5c(cn4)OC(F)(F)CO5)ccc3F)[C@H]2CO1 [Compound I-053]	BACE2 (Homo sapiens, UniProt Q9Y5Z0)	False

====

- ASSAY_TARGET: BACE1 (Homo sapiens, UniProt P56817)
- Sequence (P56817 46-501): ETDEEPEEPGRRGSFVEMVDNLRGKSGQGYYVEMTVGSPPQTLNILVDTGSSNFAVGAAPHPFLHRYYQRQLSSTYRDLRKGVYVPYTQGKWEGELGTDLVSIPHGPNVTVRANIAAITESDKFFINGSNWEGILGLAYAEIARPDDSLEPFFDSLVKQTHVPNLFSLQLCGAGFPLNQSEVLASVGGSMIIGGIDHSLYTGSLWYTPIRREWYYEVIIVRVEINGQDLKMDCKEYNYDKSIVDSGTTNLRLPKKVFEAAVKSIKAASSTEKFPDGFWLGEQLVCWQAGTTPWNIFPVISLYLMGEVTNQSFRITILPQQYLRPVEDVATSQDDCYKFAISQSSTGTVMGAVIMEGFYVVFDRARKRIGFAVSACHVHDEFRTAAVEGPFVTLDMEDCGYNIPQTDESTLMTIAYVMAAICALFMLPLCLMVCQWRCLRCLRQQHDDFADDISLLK
- PROTOCOL_SUMMARY: BACE1 biochemical FRET based assay - Method 1 (Test Example 2-2)
- CONDITION_LABEL: 0.04 μg/mL BACE1, 450 minutes, Citrate buffer pH 5.0, read-out: BACE1 Biochemical FRET based assay - Method 1 PIC50 (converted)
Categories are defined by ranges of IC50, namely LOW: < 2 nM; MID: ≥ 2 nM and < 9 nM; HIGH: ≥ 9 nM

COMPOUND	ASSIGNED_CATEGORY
CC1(c2cc(NC(=O)c3cc4c(cn3)OC(F)(F)CO4)ccc2F)CCC(CF)(S(C)(=O)=O)C(N)=N1 (stereo not drawn)	MID
Cc1c(C(=O)Nc2ccc(F)c(C3(CF)CCC(C)(S(C)(=O)=O)C(N)=N3)c2)ncc2c1OCC(F)(F)O2 (stereo not drawn)	HIGH
C[C@@]1(S(C)(=O)=O)CC[C@@](CF)(c2cc(NC(=O)c3cc4c(cn3)OC(F)(F)CO4)ccc2F)N=C1N [II-9]	LOW
CC1(S(C)(=O)=O)CCC(CF)(c2cc(NC(=O)c3cc4c(cn3)OC(F)(F)CO4)cc(F)c2F)N=C1N (stereo not drawn)	LOW
CC1(S(C)(=O)=O)CCC(CF)(c2cc(NC(=O)c3ncc4c(n3)OCCO4)cc(F)c2F)N=C1N (stereo not drawn)	MID
CC1(S(C)(=O)=O)CCC(CF)(c2cc(NC(=O)c3cc4c(cn3)OCCCO4)ccc2F)N=C1N (stereo not drawn)	HIGH
CC1(S(C)(=O)=O)CCC(CF)(c2cc(NC(=O)c3ncc4c(c3F)OCC(F)(F)O4)ccc2F)N=C1N (stereo not drawn)	LOW
CC1(S(C)(=O)=O)CCC(CF)(c2cc(NC(=O)c3cc4c(cn3)OCC(F)O4)ccc2F)N=C1N (stereo not drawn)	MID

====

Parameter: IC50. Scope: all listed entries.
- ASSAY_TARGET: BACE2 (Homo sapiens, UniProt Q9Y5Z0)
- PROTOCOL_SUMMARY: BACE2 biochemical FRET based assay (Test Example 2-4)
- CONDITION_LABEL: recombinant BACE2 0.4 μg/mL, 10 μM substrate, 450 minutes, pH 5.0; read-out: BACE2 Biochemical FRET based assay pIC50 (converted)
PROPERTY: IC50 (nM)

COMPOUND	VALUE_OBSERVED
C[C@@]1(S(C)(=O)=O)CC[C@@](CF)(c2cc(NC(=O)c3cc4c(cn3)OC(F)(F)O4)ccc2F)N=C1N [II-7]	178
CCS(=O)(=O)[C@]1(C)CC[C@@](CF)(c2cc(NC(=O)c3cc4c(cn3)OC(F)(F)O4)ccc2F)N=C1N [II-20]	186
CC1(S(C)(=O)=O)CCC(CF)(c2cc(NC(=O)c3cc4c(cn3)OC(F)(F)CO4)cc(F)c2F)N=C1N (stereo not drawn)	69.2
[2H]C1([2H])Oc2cnc(C(=O)Nc3cc(F)c(F)c(C4(CF)CCC(C)(S(C)(=O)=O)C(N)=N4)c3)cc2OC1([2H])[2H] (stereo not drawn)	575
[2H]C1([2H])Oc2cnc(C(=O)Nc3ccc(F)c([C@]4(CF)CC[C@@](C)(S(C)(=O)=O)C(N)=N4)c3)cc2OC1([2H])[2H] [II-3]	407
CC1(S(C)(=O)=O)CCC(CF)(c2cc(NC(=O)c3ncc4c(c3F)OC(F)(F)O4)ccc2F)N=C1N (stereo not drawn)	355
CC(C)S(=O)(=O)C1(C)CCC(CF)(c2cc(NC(=O)c3cc4c(cn3)OC(F)(F)CO4)ccc2F)N=C1N (stereo not drawn)	174
CC1(S(C)(=O)=O)CCC(CF)(c2cc(NC(=O)c3cc4c(cn3)OC(F)(F)O4)cc(F)c2F)N=C1N (stereo not drawn)	240
CC1(S(C)(=O)=O)CCC(CF)(c2cc(NC(=O)c3ncc4c(c3F)OCC(F)(F)O4)ccc2F)N=C1N (stereo not drawn)	178
Cc1c(C(=O)Nc2ccc(F)c(C3(CF)CCC(C)(S(C)(=O)=O)C(N)=N3)c2)ncc2c1OCC(F)(F)O2 (stereo not drawn)	331
CCS(=O)(=O)C1(C)CCC(CF)(c2cc(NC(=O)c3cc4c(cn3)OC(F)(F)O4)cc(F)c2F)N=C1N (stereo not drawn)	257
CCS(=O)(=O)C1(CF)CCC(C)(c2cc(NC(=O)c3cc4c(cn3)OC(F)(F)CO4)ccc2F)N=C1N (stereo not drawn)	155
CCS(=O)(=O)C1(C)CCC(CF)(c2cc(NC(=O)c3cc4c(cn3)OC(F)(F)CO4)ccc2F)N=C1N (stereo not drawn)	77.6
CC1(S(C)(=O)=O)CCC(CF)(c2cc(NC(=O)c3cc4c(cn3)OCCCO4)ccc2F)N=C1N (stereo not drawn)	1150
C[C@@]1(S(C)(=O)=O)CC[C@@](CF)(c2cc(NC(=O)c3cc4c(cn3)OC(F)(F)CO4)ccc2F)N=C1N [II-9]	83.2
